Molecular target: T1, integrin alpha11 (C2C12alpha11 cells) (human, UniProt Q9UKX5)
T1 chain: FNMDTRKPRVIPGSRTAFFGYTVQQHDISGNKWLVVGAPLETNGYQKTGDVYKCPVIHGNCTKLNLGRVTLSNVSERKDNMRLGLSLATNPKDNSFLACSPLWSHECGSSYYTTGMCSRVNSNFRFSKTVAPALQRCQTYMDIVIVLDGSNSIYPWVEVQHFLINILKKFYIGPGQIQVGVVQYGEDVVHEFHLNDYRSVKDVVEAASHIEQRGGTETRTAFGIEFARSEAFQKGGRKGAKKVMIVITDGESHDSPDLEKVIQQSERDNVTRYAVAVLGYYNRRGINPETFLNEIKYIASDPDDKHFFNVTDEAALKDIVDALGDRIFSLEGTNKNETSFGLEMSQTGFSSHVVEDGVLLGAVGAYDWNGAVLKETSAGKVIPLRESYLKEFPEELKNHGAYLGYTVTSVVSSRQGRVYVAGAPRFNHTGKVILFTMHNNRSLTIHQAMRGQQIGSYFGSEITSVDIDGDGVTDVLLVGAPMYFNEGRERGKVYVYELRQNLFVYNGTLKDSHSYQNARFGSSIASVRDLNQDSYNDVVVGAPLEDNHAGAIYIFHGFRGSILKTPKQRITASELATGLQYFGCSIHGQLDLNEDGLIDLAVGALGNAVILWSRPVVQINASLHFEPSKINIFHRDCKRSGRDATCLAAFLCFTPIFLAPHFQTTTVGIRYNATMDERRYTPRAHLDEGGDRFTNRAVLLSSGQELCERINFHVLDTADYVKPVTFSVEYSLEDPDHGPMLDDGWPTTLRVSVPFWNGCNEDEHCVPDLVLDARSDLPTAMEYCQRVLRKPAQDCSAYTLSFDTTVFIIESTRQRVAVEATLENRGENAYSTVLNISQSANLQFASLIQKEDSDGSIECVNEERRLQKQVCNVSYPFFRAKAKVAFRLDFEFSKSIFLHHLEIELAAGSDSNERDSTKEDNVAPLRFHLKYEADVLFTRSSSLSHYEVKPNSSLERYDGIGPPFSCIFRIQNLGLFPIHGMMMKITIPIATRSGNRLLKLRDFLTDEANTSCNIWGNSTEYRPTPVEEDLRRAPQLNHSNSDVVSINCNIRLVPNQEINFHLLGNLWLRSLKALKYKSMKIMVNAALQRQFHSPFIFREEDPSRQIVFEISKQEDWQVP
Experiment: FACS, C2C12alpha11 cells
VALUE KIND: binding result

BINDER: Th-Ab15 (antibody, V domains shown) VH: QVQLVQSGAEVKKPGASVKVSCKTSGYTFTEYYVIWVRQAPGQGLEWLGWIFPGSGRTYYSEKFRGRATITVDKSTSTAYMELSSLRSEDTAVYYCARDNYGSSGKFFAYWGQGTLVTVSS VL: DVVMTQSPLSLPVTLGQPASISCRSSQSLVHSNGNTYLHWYQQKPGQPPKLLIYKVSNRFSGVPDRFSGSGSGTDFTLKISRVEAEDVGVYYCSQSTHVPYTFGQGTKLEIK
VALUE KIND: binding result
RECORDED MEASUREMENT: no binding

BINDER: Th-Ab9 (antibody, V domains shown) VH: QVQLVQSGAEVKKPGASVKVSCKTSGYTFTEYYIIWVRQAPGQGLEWLGWIFPGSGRTYYSEKFRGRATITVDKSTSTAYMELSSLRSEDTAVYYCARDNYGSSGKFFAYWGQGTLVTVSS VL: DVVMTQSPLSLPVTLGQPASISCRSSQSLVHSNGNTYLHWYQQKPGQPPKLLIYKVSNRFSGVPDRFSGSGSGTDFTLKISRVEAEDVGVYYCSQSTHVPYTFGQGTKLEIK
VALUE KIND: binding result
RECORDED MEASUREMENT: no binding
